Source of measurements: the supplement of paper PMC10567573

B1: LOXL2 (parent)
chain: YVEVKEGKTWKQICDKHWTAKNSR

Variants of: B1
assay.info: protein stability index of a GFP-peptide fusion (GPS, HEK-293T) (PSI 1-6); higher = more stable;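 further: lentivirally expressed fusions sorted by FACS into six bins by GFP to DsRed ratio, PSI derived from sequencing read proportions per bin multiplied by bin number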
condition.parameters: c terminus: a fixed tail appended
Decide by protein stability index: equal to or exceeding 2 means 1, less means -1.

In [3]: df
Out[3]:
                              chain  answer_label
 0  YVEVKEGKTWKQICDKHWEAKNSR [T19E]             1
 1  YVEVKEGKTWKQICRKHWTAKNSR [D15R]            -1
 2  YVEVKEGKTWKQICDHHWTAKNSR [K16H]             1
 3   YVEVKEGATWKQICDKHWTAKNSR [K8A]             1
 4  YVEVKEGKTWKQICPKHWTAKNSR [D15P]            -1
 5  YVEVKEGKTWKQICDKHWTDKNSR [A20D]             1
 6   YVEVKEGDTWKQICDKHWTAKNSR [K8D]             1
 7  YVEVKEGKTWKQICDKHWTAKNSM [R24M]             1
 8  YVEVKEGKTWKYICDKHWTAKNSR [Q12Y]             1
 9  YVEVKEGKTWKQICDKHTTAKNSR [W18T]            -1
10  YVEVKEGKTWKQICDKHWTAKNSW [R24W]            -1
